target: human CXCR3 (N-delta 4) (Homo sapiens, UniProt P49682); construct: CD8 leader (N); Flag tag; expressed in transfected cells; membrane preparation; test: Human CXCR3 (N-delta 4) Scintillation Proximity Assay (SPA), [125I] IP-10 binding; settings: IC50 ratings; Ba/F3-hCXCR3 (N-delta 4) membranes, 25 pM [125I] IP-10; read-out: IC50
Sequence (P49682 5-368 limits assumed): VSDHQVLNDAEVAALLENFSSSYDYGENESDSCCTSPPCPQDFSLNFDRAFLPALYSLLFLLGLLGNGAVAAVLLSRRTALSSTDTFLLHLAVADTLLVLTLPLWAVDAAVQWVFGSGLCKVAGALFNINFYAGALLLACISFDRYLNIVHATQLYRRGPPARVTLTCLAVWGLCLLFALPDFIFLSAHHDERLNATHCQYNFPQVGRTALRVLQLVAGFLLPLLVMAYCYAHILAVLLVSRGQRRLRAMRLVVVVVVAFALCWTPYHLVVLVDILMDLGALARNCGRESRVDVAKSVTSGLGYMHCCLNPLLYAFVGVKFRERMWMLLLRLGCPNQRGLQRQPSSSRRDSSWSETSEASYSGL
pIC50: −log10 of the molar value.
property: pIC50

Entry under review: `CC[C@H]1CN(c2nc3[nH]c(=O)[nH]c3nc2Cl)CCN1C1CCN(Cc2ccc(Cl)cc2C#N)CC1` . Reported pIC50?
> 7.60

Then this molecule: `CCNC(=O)n1cnc2cc(Cl)c(N3CCN(C4CCN(Cc5ccc(Cl)cc5F)CC4)[C@@H](CC)C3)cc21`
< 7.00

Then this molecule: `CC[C@H]1CN(c2nc3[nH]c(=O)[nH]c3nc2Cl)CCN1C1CCN(Cc2ccc(Cl)cc2)CC1`
> 7.60

Then this molecule: `CC[C@H]1CN(c2cc3[nH]c(=O)[nH]c3cc2Cl)CCN1C1CCN(Cc2ccc(Cl)cc2F)CC1`
7.00 to 7.60

====

Each entry below carries its reported pIC50.
molecular target: human CXCR3 (N-delta 4) (Homo sapiens, UniProt P49682); construct: CD8 leader (N); Flag tag; expressed in transfected cells; membrane preparation; assay: Human CXCR3 (N-delta 4) Scintillation Proximity Assay (SPA), [125I] IP-10 binding; conditions: IC50 ratings; Ba/F3-hCXCR3 (N-delta 4) membranes, 25 pM [125I] IP-10; read-out: IC50
pIC50: −log10 of the molar value.

Check out these entries, answers already filled in.
- CC[C@H]1CN(c2nc3[nH]c(=O)[nH]c3nc2Cl)CCN1C1CCN(Cc2ccc(-n3cccn3)cc2)CC1: > 7.60
- CC[C@H]1CN(c2nc3[nH]c(=O)n(C)c(=O)c3nc2Cl)CCN1C1CCN(Cc2ccc(Cl)cc2)CC1: > 7.60

Now turn to the next molecule.
Entry under review: `CC[C@H]1CN(c2cc3c(cc2Cl)nc(C(F)(F)F)n3C)CCN1C1CCN(Cc2ccc(Cl)cc2F)CC1` . Reported pIC50?
< 7.00
